I'd be grateful if you could share measured self-cleavage for these entries.
B1: Osa-1-4 twister ribozyme (parent)
chain: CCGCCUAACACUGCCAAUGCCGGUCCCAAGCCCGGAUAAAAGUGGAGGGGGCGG

variants of: B1; experiment: self-cleavage, relative activity (ratio to wild type); higher = more cleavage; co-transcriptional
Numbers only.

Provide self-cleavage values for the following items, in order.
1. A38C G42C
2. C26U C9G
3. A29G G51U
4. C14G G48C
5. A29C A46G
6. A16G C11A
7. C33G G51C
8. A38C G19A

1: 0.12; 2: 0.24; 3: 0.06; 4: 0.04; 5: 0.02; 6: 0.85; 7: 0.06; 8: 0.64

Consider the following items and state reported self-cleavage for each.
1. A28G C32A
2. C15G C9U
3. A17G G50U
4. A29G C33A

1. 0.06
2. 0.11
3. 0.99
4. 0.05

State recorded self-cleavage for all listed variants.
1. C11A C27G
2. G44U G48A
3. G23U G45U
4. A39C C26U
5. A17U A46G

[0.04, 0.06, 0.03, 0.35, 0.09]

Hi team, please reply with self-cleavage for each item in this list.
1. A39G C26U
2. A7C C9G
3. A8C C52A

1. 0.55
2. 0.04
3. 0.12

I'm hoping you can list self-cleavage for every variant here, please.
1. G23A G42C
2. A41G G44C

0.07
0.39
